- System: Klebsiella pneumoniae KPN+19-15
- Assay type: cell-based
- CONDITION_LABEL: KPN+19-15
Bridge positions count the residues as written; N and C are the ends. Square brackets hold non-standard residues; d marks the D form. Peptide text beside a SMILES is read from it. * marks the point of attachment. X1 = CC[C@H](C)CCCCC(=O)*; Orn = NCCC[C@H](N)C(=O)O; Dab = NCC[C@H](N)C(=O)O
Could you please report measured MIC for the items listed next?
Please respond with the number in µg/mL and leave the unit unwritten.

Known value: Klebsiella pneumoniae KPN+19-15 MIC of the molecule CC[C@H](C)CCCCC(=O)N[C@@H](CCCN)C(=O)N[C@H](C(=O)N[C@H](CO)C(=O)N[C@H]1CCNC(=O)[C@H]([C@@H](C)O)NC(=O)[C@H](CCN)NC(=O)[C@H](CCN)NC(=O)[C@H]([C@@H](C)O)NC(=O)[C@@H](Cc2ccccc2)NC(=O)[C@H](CCN)NC1=O)[C@@H](C)O [Compound 56] (X1-[Orn]T[dS][Dab][Dab][dF]T[Dab][Dab]T; lactam 4-C) equals 0.5

Known value: Klebsiella pneumoniae KPN+19-15 MIC of the molecule CC[C@H](C)CCCCC(=O)N[C@@H](CCN)C(=O)N[C@H](C(=O)N[C@H](CO)C(=O)N[C@H]1CCNC(=O)[C@H]([C@@H](C)O)NC(=O)[C@H](CCN)NC(=O)[C@H](CCN)NC(=O)[C@H]([C@@H](C)O)NC(=O)[C@@H](Cc2ccccc2)NC(=O)[C@H](CCCN)NC1=O)[C@@H](C)O [Compound 66] (X1-[Dab]T[dS][Dab][Orn][dF]T[Dab][Dab]T; lactam 4-C) equals 0.5

----------
Could you please report measured MIC for the items listed next?
- Test system: Acinetobacter baumannii ABA19-1
- Assay type: cell-based
- CONDITION_LABEL: ABA19-1
Bridge positions count the residues as written; N and C are the ends. Square brackets hold non-standard residues; d marks the D form. Peptide text beside a SMILES is read from it. * marks the point of attachment. Dab(CH2SO3H) = N[C@@H](CCNCS(=O)(=O)O)C(=O)O; Heptanoyl(6-Me) = CC(C)CCCCC(=O)*; X1 = CC[C@H](C)CCCCC(=O)*; dDab = NCC[C@@H](N)C(=O)O; Dab = NCC[C@H](N)C(=O)O; Dap = NC[C@H](N)C(=O)O
Please respond with the number in µg/mL and leave the unit unwritten.

Documented MIC of CC[C@H](C)CCCCC(=O)N[C@@H](CN)C(=O)N[C@H](C(=O)N[C@H](CCN)C(=O)N[C@H]1CCNC(=O)[C@H]([C@@H](C)O)NC(=O)[C@H](CCN)NC(=O)[C@H](CCN)NC(=O)[C@H](CC(C)C)NC(=O)[C@@H](Cc2ccccc2)NC(=O)[C@H](CCN)NC1=O)[C@@H](C)O [Compound 91] (X1-[Dap]T[dDab][Dab][Dab][dF]L[Dab][Dab]T; lactam 4-C) : 0.03

Documented MIC of CC(C)CCCCC(=O)N[C@@H](CCNCS(=O)(=O)O)C(=O)N[C@H](C(=O)N[C@@H](CN)C(=O)N[C@H]1CCNC(=O)[C@H]([C@@H](C)O)NC(=O)[C@H](CCN)NC(=O)[C@H](CCN)NC(=O)[C@H]([C@@H](C)O)NC(=O)[C@@H](Cc2ccccc2)NC(=O)[C@H](CCN)NC1=O)[C@@H](C)O [Compound 117] ({Heptanoyl(6-Me)}-[Dab(CH2SO3H)]T[Dap][Dab][Dab][dF]T[Dab][Dab]T; lactam 4-C) : 0.25
